Measured values drawn from patent US6653340B1 for this set.

# System Name: factor XIIa (Homo sapiens, UniProt P00748)
# Sequence (P00748 373-615 limits assumed): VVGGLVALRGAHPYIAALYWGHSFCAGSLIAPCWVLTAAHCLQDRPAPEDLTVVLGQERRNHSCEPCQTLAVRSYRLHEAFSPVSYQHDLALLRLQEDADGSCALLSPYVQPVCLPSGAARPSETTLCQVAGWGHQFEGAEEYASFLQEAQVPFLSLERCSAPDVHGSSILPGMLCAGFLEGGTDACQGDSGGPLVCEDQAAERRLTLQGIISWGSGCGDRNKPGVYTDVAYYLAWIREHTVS
pIC50: −log10 of the molar value.
Measured Quantity: pIC50

Some molecules with recorded pIC50:
Recorded pIC50 of `N=C(N)c1nc2ccc(OC(=O)c3ccoc3)cc2s1` , please. 8.22

Request: `N=C(N)c1cc2cc(OC(=O)c3ccco3)ccc2o1` 7.69

# iterate: N=C(N)c1ccc2cc(OC(=O)c3ccc(N=C(N)N)cc3)ccc2c1 [nafamostat, reference compound] 6.94

Also check `N=C(N)c1nc2ccc(OC(=O)c3ccco3)cc2s1` 8.05

I. N=C(N)c1cc2ccc(OC(=O)c3ccsc3)cc2s1
II. N=C(N)C1=Cc2ccc(OC(=O)c3ccco3)cc2OC1
Which of the two items, I and II , has the greater recorded pIC50? Provide the label of your selected option as the answer. II
(II: 8.21, I: 7.90)
